Reference source for all entries: patent US4062934A

- assay overview: Neurotoxicity, intra-cerebral injection in mice (technique according to Haley and MacCornick)
- assay context: mouse, in vivo, 700 mg/kg, at 700 mg I/kg, read-out: Neurotoxicity: death rate, intra-cerebral injection in mice
quantity measured: mortality (%)

1) CC(=O)N(C)c1c(I)c(NC(=O)[C@H](O)[C@@H](O)[C@H](O)[C@H](O)CO)c(I)c(C(=O)NCCNC(=O)c2c(I)c(NC(=O)[C@H](O)[C@@H](O)[C@H](O)[C@H](O)CO)c(I)c(N(C)C(C)=O)c2I)c1I [I] :: 0

---

- assay overview: Neurotoxicity, intra-cisternal injection in rats (technique according to E. Melartin)
- assay context: in vivo, at 50 mg I/rat, read-out: Neurotoxicity: death rate, intra-cisternal injection in rats
quantity measured: mortality (%)

1) CC(=O)N(C)c1c(I)c(NC(=O)[C@H](O)[C@@H](O)[C@H](O)[C@H](O)CO)c(I)c(C(=O)NCCNC(=O)c2c(I)c(NC(=O)[C@H](O)[C@@H](O)[C@H](O)[C@H](O)CO)c(I)c(N(C)C(C)=O)c2I)c1I :: 0
